- Test system: Staphylococcus aureus
- protocol: Antimicrobial activity against Staphylococcus aureus ATCC 29213 after 24 hr by broth dilution method
- Format: functional
- condition-summary: ATCC 29213, 24 h
parameter-measured: MIC (µg/mL)

- input-smiles: "CCOc1c(/C=N\\NC(=O)c2ccncc2)cccc1CN1CCN(C)CC1"
  parameter-measured: "MIC"
  observed-measurement: 6.25
- input-smiles: "CC1(C)S[C@@H]2[C@H](NC(=O)[C@H](N)c3ccc(O)cc3)C(=O)N2[C@H]1C(=O)O"
  parameter-measured: "MIC"
  observed-measurement: 3.12
- input-smiles: "CCOc1c(/C=N\\NC(=O)c2ccncc2)cccc1CN(CC)CC"
  parameter-measured: "MIC"
  observed-measurement: 25
- input-smiles: "CCOc1c(/C=N\\NC(=O)c2ccncc2)cccc1CN(C)C"
  parameter-measured: "MIC"
  observed-measurement: 25
- input-smiles: "CCOc1c(/C=N\\NC(=O)c2ccncc2)cccc1CN1CCOCC1"
  parameter-measured: "MIC"
  observed-measurement: 6.25
- input-smiles: "CCCCN(CCCC)Cc1cccc(/C=N\\NC(=O)c2ccncc2)c1OCC"
  parameter-measured: "MIC"
  observed-measurement: 12.5
- input-smiles: "CCOc1ccccc1/C=N\\NC(=O)c1ccncc1"
  parameter-measured: "MIC"
  observed-measurement: 25
- input-smiles: "CCOc1c(/C=N\\NC(=O)c2ccncc2)cccc1CN1CCCCC1"
  parameter-measured: "MIC"
  observed-measurement: 12.5
- input-smiles: "CCOc1c(/C=N\\NC(=O)c2ccncc2)cccc1CN1CCCC1"
  parameter-measured: "MIC"
  observed-measurement: 12.5
- input-smiles: "CCOc1c(/C=N\\NC(=O)c2ccncc2)cccc1CN(c1ccccc1)c1ccccc1"
  parameter-measured: "MIC"
  observed-measurement: 6.25
- input-smiles: "CCOc1c(/C=N\\NC(=O)c2ccncc2)cccc1CN1CCNCC1"
  parameter-measured: "MIC"
  observed-measurement: 3.12
- input-smiles: "CCCN(CCC)Cc1cccc(/C=N\\NC(=O)c2ccncc2)c1OCC"
  parameter-measured: "MIC"
  observed-measurement: 25

---

- Tested on: Nakaseomyces glabratus
- protocol: Antimicrobial activity against Candida glabrata ATCC 10233 at 100 ug/ml after 24 to 48 hr by agar diffusion method
- Format: functional
- condition-summary: read-out: DIZ
Please enter y where zone of inhibition at 100 µg/mL is greater than or equal to 20 mm, and n where it is lower.

- input-smiles: "CCOc1c(/C=N\\NC(=O)c2ccncc2)cccc1CN1CCOCC1"
  classification: "y"
- input-smiles: "CCOc1c(/C=N\\NC(=O)c2ccncc2)cccc1CN1CCNCC1"
  classification: "y"
- input-smiles: "CCCN(CCC)Cc1cccc(/C=N\\NC(=O)c2ccncc2)c1OCC"
  classification: "n"
- input-smiles: "CCOc1c(/C=N\\NC(=O)c2ccncc2)cccc1CN(CC)CC"
  classification: "n"

---

- Test system: Candida albicans
- protocol: Antimicrobial activity against Candida albicans ATCC 10231 by broth dilution method
- Type: functional
Recorded MIC values for a group of compounds are listed next.
parameter-measured: MIC (µg/mL)

- input-smiles: "CCOc1c(/C=N\\NC(=O)c2ccncc2)cccc1CN1CCCC1"
  target-entity: "Candida albicans"
  parameter-measured: "MIC"
  observed-measurement: 12.5
- input-smiles: "CCOc1c(/C=N\\NC(=O)c2ccncc2)cccc1CN1CCNCC1"
  target-entity: "Candida albicans"
  parameter-measured: "MIC"
  observed-measurement: 12.5
- input-smiles: "CCOc1c(/C=N\\NC(=O)c2ccncc2)cccc1CN(c1ccccc1)c1ccccc1"
  target-entity: "Candida albicans"
  parameter-measured: "MIC"
  observed-measurement: 12.5
- input-smiles: "CCOc1c(/C=N\\NC(=O)c2ccncc2)cccc1CN1CCN(C)CC1"
  target-entity: "Candida albicans"
  parameter-measured: "MIC"
  observed-measurement: 12.5
- input-smiles: "CCCCN(CCCC)Cc1cccc(/C=N\\NC(=O)c2ccncc2)c1OCC"
  target-entity: "Candida albicans"
  parameter-measured: "MIC"
  observed-measurement: 25

---

Recorded MIC50 values for a group of compounds are listed next.
- Test system: Bacillus subtilis
- protocol: Antimicrobial activity against Bacillus subtilis ATCC […] after 24 hr by broth dilution method
- Assay type: functional
parameter-measured: MIC50 (µg/mL)

- input-smiles: "CCOc1c(/C=N\\NC(=O)c2ccncc2)cccc1CN1CCN(C)CC1"
  target-entity: "Bacillus subtilis"
  quantity-unit: "µg/mL"
  observed-measurement: 6.4
- input-smiles: "CCCCN(CCCC)Cc1cccc(/C=N\\NC(=O)c2ccncc2)c1OCC"
  target-entity: "Bacillus subtilis"
  quantity-unit: "µg/mL"
  observed-measurement: 12.8
- input-smiles: "CCOc1ccccc1/C=N\\NC(=O)c1ccncc1"
  target-entity: "Bacillus subtilis"
  quantity-unit: "µg/mL"
  observed-measurement: 25.6
- input-smiles: "CCOc1c(/C=N\\NC(=O)c2ccncc2)cccc1CN1CCNCC1"
  target-entity: "Bacillus subtilis"
  quantity-unit: "µg/mL"
  observed-measurement: 6.4
- input-smiles: "CCOc1c(/C=N\\NC(=O)c2ccncc2)cccc1CN(c1ccccc1)c1ccccc1"
  target-entity: "Bacillus subtilis"
  quantity-unit: "µg/mL"
  observed-measurement: 6.4
- input-smiles: "CCOc1c(/C=N\\NC(=O)c2ccncc2)cccc1CN(C)C"
  target-entity: "Bacillus subtilis"
  quantity-unit: "µg/mL"
  observed-measurement: 12.8
- input-smiles: "CC1(C)S[C@@H]2[C@H](NC(=O)[C@H](N)c3ccc(O)cc3)C(=O)N2[C@H]1C(=O)O"
  target-entity: "Bacillus subtilis"
  quantity-unit: "µg/mL"
  observed-measurement: 3.2
- input-smiles: "CCCN(CCC)Cc1cccc(/C=N\\NC(=O)c2ccncc2)c1OCC"
  target-entity: "Bacillus subtilis"
  quantity-unit: "µg/mL"
  observed-measurement: 12.8
- input-smiles: "CCOc1c(/C=N\\NC(=O)c2ccncc2)cccc1CN1CCOCC1"
  target-entity: "Bacillus subtilis"
  quantity-unit: "µg/mL"
  observed-measurement: 6.4
- input-smiles: "CCOc1c(/C=N\\NC(=O)c2ccncc2)cccc1CN1CCCC1"
  target-entity: "Bacillus subtilis"
  quantity-unit: "µg/mL"
  observed-measurement: 12.8
- input-smiles: "CCOc1c(/C=N\\NC(=O)c2ccncc2)cccc1CN1CCCCC1"
  target-entity: "Bacillus subtilis"
  quantity-unit: "µg/mL"
  observed-measurement: 12.8
- input-smiles: "CCOc1c(/C=N\\NC(=O)c2ccncc2)cccc1CN(CC)CC"
  target-entity: "Bacillus subtilis"
  quantity-unit: "µg/mL"
  observed-measurement: 12.8

---

- Test system: Candida albicans
- protocol: Antimicrobial activity against Candida albicans ATCC 10231 by broth dilution method
- Assay type: functional

- input-smiles: "CCOc1c(/C=N\\NC(=O)c2ccncc2)cccc1CN1CCCCC1"
  MIC50, µg/mL: 12.8
- input-smiles: "CCCN(CCC)Cc1cccc(/C=N\\NC(=O)c2ccncc2)c1OCC"
  MIC50, µg/mL: 12.8
- input-smiles: "CCCCN(CCCC)Cc1cccc(/C=N\\NC(=O)c2ccncc2)c1OCC"
  MIC50, µg/mL: 12.8
- input-smiles: "CCOc1c(/C=N\\NC(=O)c2ccncc2)cccc1CN(c1ccccc1)c1ccccc1"
  MIC50, µg/mL: 6.4
- input-smiles: "CCOc1c(/C=N\\NC(=O)c2ccncc2)cccc1CN1CCNCC1"
  MIC50, µg/mL: 6.4
- input-smiles: "CCOc1c(/C=N\\NC(=O)c2ccncc2)cccc1CN(CC)CC"
  MIC50, µg/mL: 12.8

---

Recorded zone of inhibition at 100 µg/mL values for a group of compounds are listed next.
- Test system: Nakaseomyces glabratus
- protocol: Antimicrobial activity against Candida glabrata ATCC 10233 at 100 ug/ml after 24 to 48 hr by agar diffusion method
- Format: functional
- condition-summary: read-out: DIZ

- input-smiles: "CCOc1c(/C=N\\NC(=O)c2ccncc2)cccc1CN1CCCCC1"
  quantity-unit: "mm"
  zone of inhibition at 100 µg/mL: 16
- input-smiles: "CCOc1c(/C=N\\NC(=O)c2ccncc2)cccc1CN(C)C"
  quantity-unit: "mm"
  zone of inhibition at 100 µg/mL: 14
- input-smiles: "CCCCN(CCCC)Cc1cccc(/C=N\\NC(=O)c2ccncc2)c1OCC"
  quantity-unit: "mm"
  zone of inhibition at 100 µg/mL: 15
- input-smiles: "CCOc1ccccc1/C=N\\NC(=O)c1ccncc1"
  quantity-unit: "mm"
  zone of inhibition at 100 µg/mL: 11
- input-smiles: "CCOc1c(/C=N\\NC(=O)c2ccncc2)cccc1CN1CCCC1"
  quantity-unit: "mm"
  zone of inhibition at 100 µg/mL: 19
- input-smiles: "CCOc1c(/C=N\\NC(=O)c2ccncc2)cccc1CN(c1ccccc1)c1ccccc1"
  quantity-unit: "mm"
  zone of inhibition at 100 µg/mL: 22
